Hello, the source for this data is PubChem BioAssay (EPA / NIEHS), in case you need it.

- protocol-notes: Tanguay_ZF_120hpf_MORT_legacy: (Legacy) Oregon State University Tanguay Lab 120 Hour Post-fertilization zebrafish Assay for Mortality (AID 2283633)
The source made the active and inactive calls. The calls were made as follows: active = hit-call score of the fitted dose curve at least 0.9, where 1 is the maximum; inconclusive = response in the unintended direction; inactive = score below 0.9.
Output constraint: value belongs to T = active, F = inactive

stdin: State the result this test recorded for C[C@]12CC[C@@H]3c4ccc(O)cc4CC[C@H]3[C@@H]1CCC2=O .
stdout: F

stdin: Test call for this molecule, please: Oc1ccc2ccccc2c1
stdout: F

stdin: For NC(=O)c1nc(-c2cccc(-c3cc(F)ccc3OCC(F)(F)C(F)(F)F)c2)n[nH]1 , what call appears in the results of this test?
stdout: F

stdin: Each molecule tested received a call. Report the one for CN(C)C(=O)C1(N2CCCCC2)CCN(CC[C@@]2(c3ccc(Cl)c(Cl)c3)CN(C(=O)c3ccccc3)CCO2)CC1 .
stdout: T

stdin: Name the outcome recorded for CCCCCc1ccc(N)cc1 in the assay.
stdout: F

stdin: I'd appreciate the recorded outcome for CCN(CC)C(=O)c1cc(S(=O)(=O)Cc2ccccc2)c(N2CCC(c3ccccc3)CC2)cc1N(CC)CCN(C)C from this test.
stdout: T

stdin: Returns: the outcome recorded for CCCCCCCCOc1ccc(C(=O)c2ccccc2)c(O)c1 in this assay.
stdout: F

stdin: Please let me know the test result on file for CC1=CC(=O)/C(=C(/C)O)C(=O)O1 .
stdout: F

stdin: Write down the call the test reported for this molecule. Item: CC(C)(c1cc(Br)c(O)c(Br)c1)c1cc(Br)c(O)c(Br)c1
stdout: T

stdin: Each molecule tested received a call. Report the one for CC(C)(C)c1csc(-c2cc3cc(OCc4ccccc4CC(=O)O)ccc3o2)n1 .
stdout: T

stdin: I would be grateful if you could indicate the recorded call for OC12N=C(c3ccccc3)SC1Cc1cc(Cl)ccc12 (configuration not stated) .
stdout: F

stdin: Can you look up the reported call for c1ccc(C[n+]2cccc3ccccc32)cc1 for me?
stdout: F

stdin: Query: recorded result category for Cc1c2ccccc2c(C)c2c1ccc1ccccc12 in this test
stdout: F

stdin: Called result for Cc1cn([C@H]2C[C@H](N=[N+]=[N-])[C@@H](CO)O2)c(=O)[nH]c1=O
stdout: F

stdin: Hi team, can someone confirm the assay call for CCCCCCCCCCCO ?
stdout: F

stdin: Could you please tell me the result logged for O=C(O)c1ccccc1-n1cc(C(=O)O)c(=O)c2cc(Nc3c(F)cc(F)cc3Cl)c(Cl)cc21 in this assay?
stdout: F

stdin: In this assay, the call recorded for CCN(Cc1cccc(S(=O)(=O)O)c1)c1ccc(C(=C2C=CC(=[N+](CC)Cc3cccc(S(=O)(=O)O)c3)C=C2)c2ccccc2S(=O)(=O)[O-])cc1 was what?
stdout: F

stdin: Which outcome did this test record for the molecule CCCOC(=O)c1cc(O)c(O)c(O)c1 ?
stdout: F

stdin: Test call, this molecule: CCCCCCCCCCCCO
stdout: F

stdin: Give the logged outcome of this assay for the following molecule: CC(O)CC(C)(C)O (configuration not stated)
stdout: F

stdin: Could you check what this test reported for O=C(OCCCCCCOC(=O)c1ccccc1)c1ccccc1 ?
stdout: F

stdin: Could you check what this test reported for CCCCCCCCCCCC[N+](C)(C)C ?
stdout: F

###

- Tested on: guinea pig Histamine Receptor (H2), gene 100729734
- protocol-notes: NVS_GPCR_gH2: NovaScreen (NVS) G Protein-Coupled Receptor Assay for guinea pig Histamine Receptor (H2) (AID 2283342)
Inconclusive results are not listed. The source made the active and inactive calls. Rule for the calls: active = hit-call score of the fitted dose curve at least 0.9, where 1 is the maximum; inconclusive = response in the unintended direction; inactive = score below 0.9.
outcome-measure: AC50

stdin: Under guinea pig Histamine Receptor (H2), gene 100729734, report AC50 for CN(C)C(=O)C1(N2CCCCC2)CCN(CC[C@@]2(c3ccc(Cl)c(Cl)c3)CN(C(=O)c3ccccc3)CCO2)CC1
stdout: 1.08 µM (active)

stdin: Report AC50 on guinea pig Histamine Receptor (H2), gene 100729734 for this entry: COc1ccc2cc(S(=O)(=O)N[C@H](CC(=O)N[C@H](Cc3ccc(CN4[C@H](C)CCC[C@@H]4C)cc3)C(=O)N(C)C(C)C)c3ccc4c(c3)OCO4)ccc2c1
stdout: 20.5 µM (active)

stdin: Find the measured AC50 of O=C1c2ccccc2C(=O)N1CCc1noc(-c2ccc(CN3CCCCCC3)s2)n1 with guinea pig Histamine Receptor (H2), gene 100729734 as test system.
stdout: 8.06 µM (active)
